Measured Kd by item
tested target: T1, human nerve growth factor (human, UniProt P01138 122-241)
T1 construct: Immobilised on CM5 chips for BIAcore, soluble in neuron survival assays; also called human NGF; hNGF
T1 sequence (P01138 122-241 limits assumed): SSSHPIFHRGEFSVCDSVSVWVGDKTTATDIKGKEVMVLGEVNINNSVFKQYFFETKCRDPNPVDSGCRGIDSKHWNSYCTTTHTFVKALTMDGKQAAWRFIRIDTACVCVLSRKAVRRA
experiment notes: BIAcore SPR screen, Fab over immobilised human NGF; KD calculated from koff with kon 4e4 M-1s-1
Form entry: value (nM) — number only.

Data request: Annotate the binder 8L2-6D5 Fab with CDR H3 mutation G103A (Fab, V domains shown, A103 is the E3 residue, so it is kept; See note of m8) VH: QVQLQESGPGLVKPSETLSLTCTVSGFSLIGYDINWIRQPPGKGLEWIGMIWGDGTTDYNSALKSRVTISKDTSKNQFSLKLSSVTAADTAVYYCARGGYYYATSYYFDYWGQGTLVTVS VL: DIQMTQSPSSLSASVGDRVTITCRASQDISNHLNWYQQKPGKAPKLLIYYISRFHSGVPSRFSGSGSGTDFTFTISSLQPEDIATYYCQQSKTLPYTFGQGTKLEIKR with its measured Kd.
Data returned: 4

Data request: Annotate the binder 8L2-6D5 Fab with CDR L3 mutation S91E (Fab, V domains shown, E91 is the E3 residue, so it is kept; See note of m8) VH: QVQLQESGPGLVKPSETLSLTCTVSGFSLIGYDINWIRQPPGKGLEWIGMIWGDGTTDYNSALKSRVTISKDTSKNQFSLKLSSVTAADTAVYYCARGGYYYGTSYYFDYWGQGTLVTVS VL: DIQMTQSPSSLSASVGDRVTITCRASQDISNHLNWYQQKPGKAPKLLIYYISRFHSGVPSRFSGSGSGTDFTFTISSLQPEDIATYYCQQEKTLPYTFGQGTKLEIKR with its measured Kd.
Data returned: 6

Data request: Annotate the binder 8L2-6D5 Fab with CDR H3 mutation Y110R (Fab, V domains shown, See note of m8) VH: QVQLQESGPGLVKPSETLSLTCTVSGFSLIGYDINWIRQPPGKGLEWIGMIWGDGTTDYNSALKSRVTISKDTSKNQFSLKLSSVTAADTAVYYCARGGYYYGTSYYFDRWGQGTLVTVS VL: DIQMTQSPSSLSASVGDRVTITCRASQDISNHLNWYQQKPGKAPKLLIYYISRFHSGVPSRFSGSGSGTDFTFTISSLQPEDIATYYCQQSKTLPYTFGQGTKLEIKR with its measured Kd.
Data returned: 40

Data request: Annotate the binder 8L2-6D5 Fab with CDR H3 mutation Y101W (Fab, V domains shown, W101 is the E3 residue, so it is kept; See note of m8) VH: QVQLQESGPGLVKPSETLSLTCTVSGFSLIGYDINWIRQPPGKGLEWIGMIWGDGTTDYNSALKSRVTISKDTSKNQFSLKLSSVTAADTAVYYCARGGYWYGTSYYFDYWGQGTLVTVS VL: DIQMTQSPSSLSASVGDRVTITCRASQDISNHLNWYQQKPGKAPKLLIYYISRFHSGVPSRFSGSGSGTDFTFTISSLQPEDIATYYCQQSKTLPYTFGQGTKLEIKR with its measured Kd.
Data returned: 14

Data request: Annotate the binder 8L2-6D5 Fab with CDR L3 mutation Y96R (Fab, V domains shown, See note of m8) VH: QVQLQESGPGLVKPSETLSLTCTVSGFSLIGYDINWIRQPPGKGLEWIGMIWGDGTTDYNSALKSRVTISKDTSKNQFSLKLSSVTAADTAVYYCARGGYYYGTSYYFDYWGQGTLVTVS VL: DIQMTQSPSSLSASVGDRVTITCRASQDISNHLNWYQQKPGKAPKLLIYYISRFHSGVPSRFSGSGSGTDFTFTISSLQPEDIATYYCQQSKTLPRTFGQGTKLEIKR with its measured Kd.
Data returned: 42
